Measured IC50, listed per entry for reference.
- ASSAY TARGET: recombinant human FLAP protein (Homo sapiens, UniProt P20292)
- Sequence (P20292 whole entry): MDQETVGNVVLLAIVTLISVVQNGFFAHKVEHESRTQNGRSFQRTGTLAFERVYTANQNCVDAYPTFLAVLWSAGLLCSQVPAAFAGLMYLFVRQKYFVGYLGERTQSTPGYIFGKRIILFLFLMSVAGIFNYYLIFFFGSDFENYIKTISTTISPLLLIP
- ASSAY COMMENT: FLAP binding assay (Scintillation Proximity Assay, displacement of [125I]L-691,831)
- TEST PARAMETERS: read-out: FLAP SPA IC50
QUANTITY MEASURED: IC50

>>> result("CC(C)(C)NC(=O)Cn1cc(-c2nc([C@@](C)(c3ccc(-c4cnc(N)nc4)nc3)C3CC3)no2)cn1 [Example 102]")
"0.013 µM"
>>> result("CC(C)[C@](C)(c1ccc(-c2ccc(N)nc2)nc1)c1noc(-c2cnn(CC(=O)N(C)C)c2)n1 [Example 132]")
"0.012 µM"
>>> result("CC(C)[C@](C)(c1ccc(-c2ccc(N)nc2)nc1)c1noc(-c2cnn(CC(C)(C)O)c2)n1 [Example 136]")
"0.0099 µM"
>>> result("CCNC(=O)Cn1cc(-c2nc([C@@](C)(c3ccc(-c4cnc(N)nc4)nc3)C(C)C)no2)cn1 [Example 149]")
"0.015 µM"
